Target: T1, human HHLA2-mIgG2a fusion protein (human; mouse, UniProt Q9UM44 23-344, limits assumed)
T1 construct: also called hHHLA2-mIgG2a; HHLA2-Fc
T1 sequence: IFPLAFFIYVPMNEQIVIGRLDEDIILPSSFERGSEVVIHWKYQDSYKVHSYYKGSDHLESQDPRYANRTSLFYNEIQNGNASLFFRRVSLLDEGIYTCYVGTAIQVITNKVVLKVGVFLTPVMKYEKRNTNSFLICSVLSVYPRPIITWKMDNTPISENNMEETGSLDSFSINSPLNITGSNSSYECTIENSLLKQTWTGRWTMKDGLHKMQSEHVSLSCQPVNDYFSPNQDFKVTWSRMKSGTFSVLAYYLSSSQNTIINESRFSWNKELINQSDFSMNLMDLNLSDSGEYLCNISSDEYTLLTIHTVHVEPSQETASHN
Experiment: flow cytometry, mAb pre-incubated with 4 ug/ml HHLA2-mIgG2a; blockade of its binding to TMIGD2-transfected 293T cells
For each of the binders below, state its IC50.
Numbers only, in µg/mL.

anti-HHLA2 monoclonal antibody 6D10 (antibody, IgG1, V domains shown, also called 6DI0; 499.5.6D10.11.11.7) VH: EVQLVETGGGLVQPKGSLKLSCAASGFTFNTNVMNWVRQAPGKGLEWVARIRTKTNNYATYYADSVKDRFTIFRDDSQSILYLQMNNLKTEDTAMYYCVGAMDYWGQGTSVTVSS VL: DIVLTQSPASLAVSLGQRATISCRASESVDNYGISFMHWYQQKPGQPPKLLIYRASNLKSGIPARFSGSGSRTDFTLTINPVETGDVATYYCQQSSKDPPTFGTGTKLELK
11.7
anti-HHLA2 monoclonal antibody 6F10 (antibody, IgG1, V domains shown, also called 499.5.6F10.A4.10; MHC2557) VH: QVHLQQSAAELARPGASVKMSCKASGYTFTTYTMHWVKQRPGQGLEWIGHINPSSGYTDYNQKFKDKTTLTADKSSSTAYMQLNSLTSEDSAVYYCARHPWDSDYWGQGTTLTVSS VL: DIQMTQSPASLSASVGETVTITCRASENIDSYLAWYQQKQGRSPQLLVYAATNLADGVPSRFSGSGSGTQFSLQINRLQSEDVARYYCQHYYITPFTFGSGTKLEIA
0.55

**Query** IC50 lookup needed for anti-HHLA2 monoclonal antibody 2G2 (antibody, IgG1, V domains shown, also called 499.5.2G2.13.3.10; MHC2561) VH: EVMLVESGGGLVKPGGSLKLSCAVSGLTFSSYAMSWVRQTPEKRLEWVATISSGGSHTYYPDSVKGRFIISRDNAKNTLYLQMNSLRSEDTAMYYCTRLGRAFDYWGQGTTLTVSS VL: DIVMTQSHKFMSTSVGDRVSITCKASQDVSTAVAWYQQKPGQSPKVLIYWASTRHTGVPDRFTGSGSGTDFTLTISSVQAEDLALYYCQQDYSTPWTFGGGTKLEIK , thanks.
**Result** 0.85
